Target: IRAK4 (Homo sapiens)
Construct: Degradation of IRAK4 in OCI-LY10 was quantitatively measured using Meso Scale Discovery technology; endogenous in cells; host or cells: OCI-LY10
Sequence (Q9NWZ3 1-460): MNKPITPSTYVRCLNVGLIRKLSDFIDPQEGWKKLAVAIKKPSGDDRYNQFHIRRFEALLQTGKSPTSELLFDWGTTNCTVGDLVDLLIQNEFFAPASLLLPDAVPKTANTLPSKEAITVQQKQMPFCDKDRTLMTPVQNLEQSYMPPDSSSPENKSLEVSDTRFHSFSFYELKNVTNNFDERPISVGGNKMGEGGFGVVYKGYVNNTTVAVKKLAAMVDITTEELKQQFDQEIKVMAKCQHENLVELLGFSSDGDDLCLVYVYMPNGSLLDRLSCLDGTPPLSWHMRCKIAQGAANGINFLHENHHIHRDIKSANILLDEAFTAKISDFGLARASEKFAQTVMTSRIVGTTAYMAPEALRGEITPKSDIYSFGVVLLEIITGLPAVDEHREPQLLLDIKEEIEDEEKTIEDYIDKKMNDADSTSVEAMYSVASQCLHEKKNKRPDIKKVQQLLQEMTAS
Assay: IRAK4 MSD Degradation in OCI-LY10
Type: cell-based
Conditions: OCI-LY10 cells, 4 hrs incubation, MSD; read-out: IRAK4 degradation in OCI-LY10 at 4 hrs: DC50

[
  {
    "compound": "C[C@@H]1CN(c2ccn3ncc(C(=O)Nc4cn([C@H]5CC[C@H](CN6CCN(CC#Cc7cccc8c7n(C)c(=O)n8C7CCC(=O)NC7=O)CC6)CC5)nc4C(F)F)c3n2)C[C@H](C)O1 (stereo partly drawn)",
    "DC50": "> 200 nM"
  },
  {
    "compound": "CN(C)c1cnc2c(C(=O)Nc3cn([C@H]4CC[C@H](CN5CCN(CC#Cc6cccc7c6n(C)c(=O)n7C6CCC(=O)NC6=O)CC5)CC4)nc3C(F)F)cnn2c1 (stereo partly drawn)",
    "DC50": "> 200 nM"
  },
  {
    "compound": "COc1cc2nn([C@H]3CC[C@H](CN4CCC(c5cccc6c5n(C)c(=O)n6C5CCC(=O)NC5=O)C(F)(F)C4)CC3)cc2cc1NC(=O)c1cccc(C(F)(F)F)n1 (stereo partly drawn)",
    "DC50": "> 200 nM"
  },
  {
    "compound": "COc1cc2nn([C@H]3CC[C@H](CN4CCC5(CC4)CCN(c4cccc(C6CCC(=O)NC6=O)c4)CC5)CC3)cc2cc1NC(=O)c1cncc(C#N)c1 (stereo partly drawn)",
    "DC50": "> 200 nM"
  },
  {
    "compound": "Cn1c(=O)n(C2CCC(=O)NC2=O)c2cccc([C@@H]3CCN(C[C@H]4CC[C@H](n5cc6cc(NC(=O)c7cccc(C(F)F)n7)ncc6n5)CC4)C[C@@H]3F)c21 (stereo partly drawn)",
    "DC50": "> 200 nM"
  },
  {
    "compound": "Cn1c(=O)n(C2CCC(=O)NC2=O)c2cccc(N3CCC4C(C3)OCCN4C[C@H]3CC[C@H](n4cc(NC(=O)c5cnn6cccnc56)c(C(F)F)n4)CC3)c21 (stereo partly drawn)",
    "DC50": "> 200 nM"
  },
  {
    "compound": "C[C@H]1CN(C[C@H]2CC[C@H](n3cc(NC(=O)c4cnn5ccc(N6C[C@@H]7C[C@H]6CO7)nc45)c(C(F)F)n3)CC2)CC[C@@H]1OCC#Cc1cccc2c1n(C)c(=O)n2[C@@H]1CCC(=O)NC1=O",
    "DC50": "10 to 100 nM"
  },
  {
    "compound": "CN(C[C@H]1CC[C@H](n2cc(NC(=O)c3cnn4ccc(N5CC6(CC6)C5)nc34)c(C(F)F)n2)CC1)C1CCN(c2cccc3c2n(C)c(=O)n3C2CCC(=O)NC2=O)CC1(F)F (stereo partly drawn)",
    "DC50": "> 200 nM"
  },
  {
    "compound": "CN(C[C@H]1CC[C@H](n2cc(NC(=O)c3cnn4ccc(N5CCC(F)(F)CC5)nc34)c(C(F)F)n2)CC1)C1CCN(c2cccc3c2n(C)c(=O)n3C2CCC(=O)NC2=O)CC1 (stereo partly drawn)",
    "DC50": "> 200 nM"
  },
  {
    "compound": "Cn1c(=O)n(C2CCC(=O)NC2=O)c2cccc([C@H]3C[C@H](COC4CCN(C[C@H]5CC[C@H](n6cc(NC(=O)c7cnn8ccc(N9C[C@H]%10C[C@@H]9CO%10)nc78)c(C(F)F)n6)CC5)CC4F)C3)c21 (stereo partly drawn)",
    "DC50": "> 200 nM"
  },
  {
    "compound": "CO[C@@H]1CN(c2cccc3c2n(C)c(=O)n3C2CCC(=O)NC2=O)C[C@@H]1N(C)C[C@H]1CC[C@H](n2cc3cc(NC(=O)c4cccc(C(F)(F)F)n4)ccc3n2)CC1 (stereo partly drawn)",
    "DC50": "> 200 nM"
  },
  {
    "compound": "Cn1c(=O)n(C2CCC(=O)NC2=O)c2cccc(C#CCN3CCN(C[C@H]4CC[C@H](n5cc(NC(=O)c6cnn7ccc(N8CC(F)(F)C8)nc67)c(C(F)F)n5)CC4)CC3)c21 (stereo partly drawn)",
    "DC50": "100 to 200 nM"
  },
  {
    "compound": "CN(C[C@H]1CC[C@H](n2cc3cc(NC(=O)c4cccc(C(F)(F)F)n4)c(S(C)(=O)=O)cc3n2)CC1)C1CCN(c2cccc3c2n(C)c(=O)n3C2CCC(=O)NC2=O)CC1(F)F (stereo partly drawn)",
    "DC50": "> 200 nM"
  },
  {
    "compound": "Cn1c(=O)n(C2CCC(=O)NC2=O)c2cccc(CN3CCN(C[C@H]4CC[C@H](n5cc(NC(=O)c6cnn7cccnc67)c(C(F)F)n5)CC4)CC3)c21 (stereo partly drawn)",
    "DC50": "> 200 nM"
  },
  {
    "compound": "CN(C[C@H]1CC[C@H](n2cc(NC(=O)c3cnn4cccnc34)c(C(F)F)n2)CC1)C1CCN(c2cccc3c2n(C)c(=O)n3C2CCC(=O)NC2=O)CC1(F)F (stereo partly drawn)",
    "DC50": "> 200 nM"
  },
  {
    "compound": "Cn1c(=O)n(C2CCC(=O)NC2=O)c2ccc(C3CN(C4CCN([C@H]5CC[C@H](n6cc(NC(=O)c7cnn8ccc(N9C[C@H]%10C[C@@H]9CO%10)nc78)c(C(F)F)n6)CC5)CC4(F)F)C3)c(F)c21 (stereo partly drawn)",
    "DC50": "> 200 nM"
  },
  {
    "compound": "COc1cc2nn([C@H]3CC[C@H](CN4CCC5(CC4)CCN(c4ccc(C6CCC(=O)NC6=O)cc4)CC5)CC3)cc2cc1NC(=O)c1cncc(C#N)c1 (stereo partly drawn)",
    "DC50": "10 to 100 nM"
  },
  {
    "compound": "Cn1c(=O)n(C2CCC(=O)NC2=O)c2cccc(C#CCOC3CCN(CC4CCN(c5cnc(C(F)F)c(NC(=O)c6cnn7ccc(N8C[C@H]9C[C@@H]8CO9)nc67)c5)CC4)CC3)c21 (stereo partly drawn)",
    "DC50": "> 200 nM"
  },
  {
    "compound": "Cn1c(=O)n(C2CCC(=O)NC2=O)c2cccc(N3CCN(C[C@]4(O)CC[C@@H](n5cc6cc(NC(=O)c7cccc(C(F)(F)F)n7)ncc6n5)CC4)CC3)c21 (stereo partly drawn)",
    "DC50": "> 200 nM"
  },
  {
    "compound": "Cn1c(=O)n(C2CCC(=O)NC2=O)c2cccc(N3CC(O[C@H]4CCN(C[C@H]5CC[C@H](n6cc(NC(=O)c7cnn8ccc(N9C[C@H]%10C[C@@H]9CO%10)nc78)c(C(F)F)n6)CC5)C[C@@H]4F)C3)c21 (stereo partly drawn) [I-733]",
    "DC50": "> 200 nM"
  },
  {
    "compound": "Cn1c(=O)n(C2CCC(=O)NC2=O)c2cccc(C#CCN3CCN(C[C@H]4CC[C@H](n5cc(NC(=O)c6cnn7ccc(N8CCC8)nc67)c(C(F)F)n5)CC4)CC3)c21 (stereo partly drawn)",
    "DC50": "< 10 nM"
  }
]
